biological target: MDM2 (Homo sapiens); assay: Competitive fluorescence polarization assay for MDM2; format: binding; settings: competitive FP assay, MDM2; read-out: Ki (MDM2)
Sequence (Q00987 1-125): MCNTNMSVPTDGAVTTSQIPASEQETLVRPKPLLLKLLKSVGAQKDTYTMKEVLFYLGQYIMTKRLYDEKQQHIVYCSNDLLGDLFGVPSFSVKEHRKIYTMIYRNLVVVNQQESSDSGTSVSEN
Where a SMILES comes first, the peptide text is derived from it. Bridges are numbered along the chain shown (N, C = ends). [ ]: non-standard residue; d: D form. R8 = C=CCCCCCC[C@@](C)(N)C(=O)O; S5 = C=CCCC[C@](C)(N)C(=O)O
ENDPOINT_LABEL: Ki

Requested read-out: Ki. Entry: CC(=O)N[C@@H](CC(C)C)C(=O)N[C@H](C(=O)N[C@@H](Cc1ccccc1)C(=O)N[C@]1(C)CCCCCCC=CCCC[C@@](C)(C(=O)N[C@@H](C)C(=O)N[C@@H](C)C(=O)N[C@@H](C)C(=O)N[C@@H](C)C(=O)N[C@@H](C)C(=O)N[C@H](C)C(N)=O)NC(=O)[C@H](CC(C)C)NC(=O)[C@H](Cc2c[nH]cn2)NC(=O)[C@H](C)NC(=O)[C@H](Cc2c[nH]c3ccccc23)NC(=O)[C@H](Cc2ccc(O)cc2)NC(=O)[C@H](CCC(=O)O)NC1=O)[C@@H](C)O [compound 613] (Ac-LTF[R8]EYWAHL[S5]AAAAA[dA]-NH2; staple 4-11) < 10 nM
